Below: a set of entries, each annotated with reported growth.
- Test system: SK-MEL-2 melanoma
- assay: NCI-60 one-dose screen, 48 h (100 = growth as untreated, 0 = no growth, -100 = all killed)
- condition_set: 10 µM unless noted
This is part of a sample that, as a whole, favours compounds with a hit. Of some 83,000 tested, about 20% had one in any assay. Calls of active or inactive are those of the source. How the source made its calls: active means growth percent below 10; inactive means the rest.

molecule	growth
CCCC(=O)Nc1ccccc1C(=O)O	100% (inactive)

Request: Consider the molecule CCC(CCCN1C(=O)c2ccccc2C1=O)Nc1cc(OC)cc2cccnc12 (stereo unspecified) and give its measured growth.
Response: 97.8% (inactive)

Request: Given COC(=O)[C@H](Cc1cn(C)cn1)NC(=O)[C@@H](NC(=O)Nc1cc(C(F)(F)F)cc(C(F)(F)F)c1)C(C)(C)C , state its recorded growth.
Response: -88.7% [100 µM] (active)

* * *

- Test system: MDA-MB-231 breast
- assay: NCI-60 one-dose screen, 48 h (100 = growth as untreated, 0 = no growth, -100 = all killed)
- condition_set: 10 µM unless noted
This is part of a sample that, as a whole, favours compounds with a hit. Of some 83,000 tested, about 20% had one in any assay. Calls of active or inactive are those of the source. How the source made its calls: active means growth percent below 10; inactive means the rest.
Recorded measurements of growth, one per entry

compound	growth
Nc1ccc(N=Nc2ccccc2)c2cc(S(=O)(=O)O)ccc12	109% (inactive)
Cc1cc2c(-c3nc4ccccc4n3C)c(O)c(O)cc2c(O)c1-c1c(C)cc2c(-c3nc4ccccc4n3C)c(O)c(O)cc2c1O	57.3% (inactive)
CC(=O)Nc1nc(C)c(C(=O)NNC(=O)Nc2ccccc2)s1	89.6% (inactive)
CN1CCN(Cc2ccc(NC(=O)c3ccc(C#Cc4c(N)ncc5ccc(F)cc45)cc3)cc2C(F)(F)F)CC1	-72.5% (active)

Request: // query growth value for entry N/C(=N\O)c1ccncc1
Response: 102% (inactive)

Request: Please report the recorded growth for CC1(C)CC(=O)C2=C(C1)Oc1nc(N)c(C#N)c(N)c1C2c1ccc(F)cc1 (centres undefined) .
Response: 88.7% (inactive)

Request: Recorded growth for COC(=O)c1ccc(C(=Nc2ccc(N(C)C(=O)CN3CCN(C)CC3)cc2)c2c(O)[nH]c3ccc(C(=O)OC)cc23)cc1 , please?
Response: 49.2% (inactive)

Request: Reported growth, compound COc1cc2ncnc(-n3ncc4cc(NC(=O)Nc5ccccc5)ccc43)c2cc1OC : ____
Response: -8.14% (active)

Request: Entry under review: Nc1cc(N)c2nc(-c3ccccc3)c(NCCc3ccc(Cl)c(Cl)c3)nc2c1 . Reported growth?
Response: -71.1% (active)

* * *

Measured growth, listed per entry for reference.
- System: HT29 colon
- assay: NCI-60 one-dose screen, 48 h (100 = growth as untreated, 0 = no growth, -100 = all killed)
- condition_set: 10 µM unless noted
Compounds without any hit were thinned out: in the full panel of roughly 83,000, 20% have a hit.
Output spec: scalar in %, unitless text.

Use these answered entries as a reference point.
compound	assay_target	recorded_result
COc1cc(OC)c(NC(=O)n2ncc3cc(Nc4ncnc5ccccc45)ccc32)cc1Cl	HT29 colon	80.3
COC(=O)[C@@H]1[C@H](O)[C@H](C)[C@H](O)[C@H](C)/C=C\C=C(C)C(=O)Nc2c(C)c(OC(C)=O)c3c(c2O)C(=O)C(C)=C2OCOC(=C23)C(C)=C[C@@](C)(O)[C@H](O)[C@@H](C)[C@H]1OC(C)=O	HT29 colon	110
COc1cc2c(/C=C3\C(=O)Nc4ccc(Br)cc43)c(Cl)n(C)c2cc1C	HT29 colon	7.9
N#CC1=C(N2CCOCC2)NC2c3ccccc3Sc3ccccc3N2C1=N (stereo not given)	HT29 colon	104
O=C(Nc1ccc(Cl)cn1)C1(c2ccccc2)CCCCC1	HT29 colon	85.6
N/C(=N\O)c1ccncc1	HT29 colon	101
CC1=C(C)C[C@]2(C(=O)O[C@H]3CCCC[C@@H]32)[S@](=O)C1	HT29 colon	95.3
Cn1cnc2nc[nH]c2c1=S	HT29 colon	94.5
N=C(N)c1ccc(-c2ccc(-c3cc(Cl)cc(Cl)c3)s2)cc1	HT29 colon	-38

# ---- query compound ----
Request: // lookup growth | system=HT29 colon | key= C/C(CCC(=O)O)=N/Nc1ccc([N+](=O)[O-])cc1
Response: 86.1

* * *

Recorded growth by entry
- Test system: CCRF-CEM leukemia
- assay: NCI-60 one-dose screen, 48 h (100 = growth as untreated, 0 = no growth, -100 = all killed)
- condition_set: 10 µM
Compounds without any hit were thinned out: in the full panel of roughly 83,000, 20% have a hit.
State just the number; it will be interpreted in %.

Illustrative cases are given below, each with its answer.
compound	assay_target	quantity_measured	value_units	recorded_result
CCOc1ccccc1/C=N\N=C(N/N=C/c1ccccc1OCC)N/N=C/c1ccccc1OCC	CCRF-CEM leukemia	growth	%	16.7
CCCCCCCCCC[N+](C)(C)C	CCRF-CEM leukemia	growth	%	-18.8
CC(=O)O.[In]	CCRF-CEM leukemia	growth	%	85.4
Cc1ccc(OCCn2ccc(=O)n(CCOc3ccc(Cl)cc3C(=O)c3cc(C)cc(C)c3)c2=O)cc1	CCRF-CEM leukemia	growth	%	25.7

Please look at the following compound next.
Request: Find the measured growth: item Nc1ncn([C@@H]2O[C@H](CO)[C@@H](O)C2(F)F)c(=O)n1 , target or system CCRF-CEM leukemia.
Response: 23.7

* * *

- Test system: LOX IMVI melanoma
- assay: NCI-60 one-dose screen, 48 h
- condition_set: 10 µM unless noted
This is part of a sample that, as a whole, favours compounds with a hit. Of some 83,000 tested, about 20% had one in any assay. Calls of active or inactive are those of the source. How the source made its calls: active means growth percent below 10; inactive means the rest.
Answer with one of the outcomes 1 (active), -1 (inactive)

compound	assay_target	label
COc1ccc2oc(=O)cc(CN3C(=O)S/C(=C\c4ccc(Cl)cc4)C3=O)c2c1	LOX IMVI melanoma	-1
Cn1cnc2nc[nH]c2c1=S	LOX IMVI melanoma	-1
O=C(N/N=C/c1coc2ccccc2c1=O)c1cc2oc(-c3ccccc3)cc2[nH]1	LOX IMVI melanoma	-1
O=Nc1c(-c2c(O)[nH]c3cc(Br)ccc23)[nH]c2ccccc12	LOX IMVI melanoma	1
O=C(O)c1ccc(-c2nn(-c3ccc(C(=O)O)cc3)cc2CNc2ccc(Br)cc2)cc1	LOX IMVI melanoma	-1
CCCCCCCCCCCCOC(=N)N(C)C	LOX IMVI melanoma	-1
CN1NC(c2ccccc2)NN(C)C1=O	LOX IMVI melanoma	-1
CC(=O)N1N=C(c2ccc(Cl)cc2)CC1c1cn(-c2ccccc2)nc1-c1ccc([N+](=O)[O-])cc1 (stereo not drawn)	LOX IMVI melanoma	-1
CCOC(=O)C(C)C(C)(O)c1ccccc1 (stereo not drawn)	LOX IMVI melanoma	-1
COc1cc(OC)cc(-c2ccc(-c3ccc(C(=N)N)cc3)s2)c1	LOX IMVI melanoma	1

Request: So what was the verdict on COc1ccc(Cn2cc3c(c2)-c2oncc2CC3)cc1OC in this test?
Response: -1

Request: Query: recorded result category for [N-]=[N+]=Nc1ncc(-c2ccc(C(F)(F)F)cc2)c(NC2CCCCCC2)n1 in this test
Response: -1

Request: What call does the record list for CCOc1ccc(Br)cc1/C=C(\C#N)c1ccc([N+](=O)[O-])cc1 ?
Response: -1

Request: For CC(=O)N1CCN(CCNC(=O)n2cc(-c3ccncc3)c(-c3cc(O)cc(Cl)c3)n2)CC1 , which call appears in the assay record?
Response: -1

Request: Give the logged outcome of this assay for the following compound: COc1cc(CCNc2cnc3cc(N)cc(N)c3n2)cc(OC)c1
Response: -1

* * *

- Tested on: SK-OV-3 ovarian
- assay: NCI-60 one-dose screen, 48 h
- condition_set: 10 µM unless noted
- Experimental: Growth inhibition of the SK-OV-3 human tumor cell line is measured as a screen for anti-cancer activity. Cells are grown in 96 well plates and exposed to the test compound for 48 hours. Compounds are tested at a single concentration, which is 10^-5 M for most compounds. The reported endpoint is percent growth (GI% or GIPRCNT), where numbers from 0 - 100% represent growth inhibition, and numbers from -100% - 0 represent cell death. For example, a value of 40 represents 60% growth inhibition. […]
About 83,000 compounds went through this panel and 20% of them were active in at least one assay; those are over-represented in the sample as a whole. Activity calls are given as the source filed them. How the source made its calls: active means growth percent below 10; inactive means the rest.
Can you answer with just one of these options? T for active, F for inactive

// known answers, use as guide
compound	label
COc1ccc(-c2nc(SCC(C)C)nc(Nc3ccc(C(=O)O)cc3)c2C#N)cc1	F
CCCCCCCCCc1cc[n+](CC(=O)c2ccc([N+](=O)[O-])cc2)cc1	F
NCCCOc1cc(Cl)ccc1NC(=O)c1cc2ccccc2cc1OCCCN	T

Request: Could you please tell me the result logged for COc1ccc(-c2nc(SCC(C)C)nc(Nc3ccc([N+](=O)[O-])cc3)c2C#N)cc1 in this assay?
Response: F

Request: Record request — test call for COc1ccc2c(c1)/C(=C1/S/C(=N/c3nnc(C)s3)NC1=O)C(=O)N2Cc1ccc(Br)cc1
Response: F

Origin of measurements: PubChem BioAssay (NCI)
